- SYSTEM_UNDER_TEST: Neu5Ac(a2-3)Gal(b1-3)GlcNAc6S
- METHOD: glycan array binding signal (z-score within array); higher = stronger binding
- MEASUREMENT_PARAMETERS: glycan notation: IUPAC condensed, linker removed
The sample as a whole holds a higher share of the strongest signals than the screen did.
Please go through the items and note down their glycan array binding signal (z-score).
Just the number, please, no unit attached.

Query block: Give reported glycan array binding signal (z-score) value for CD34 (Homo sapiens), P28906 (protein) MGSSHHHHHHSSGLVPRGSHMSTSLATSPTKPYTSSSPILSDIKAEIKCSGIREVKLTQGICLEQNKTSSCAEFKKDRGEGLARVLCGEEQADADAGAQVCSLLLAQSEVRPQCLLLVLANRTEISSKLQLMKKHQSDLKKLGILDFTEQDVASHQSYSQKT
Result block: 0.142

Query block: Specify glycan array binding signal (z-score) for Mannose Binding Protein (Lactobacillus plantarum) (protein) AERSEAALTHVDKDNFLKYFSLNGSATYDAKTGIVTITPNQNNQVGNFSLTSKIDMNKSFTLTGQVNLGSNPNGADGIGFAFHSGNTTDVGNAGGNLGIGGLQDAIGFKLDTWFNSYQAPSSDKNGSEISSTNSNGFGWNGDSANAPYGTFVKTSNQEISTANGSKVQRWWAQDTGESQALSKADIDGNFHDFVVNYDGATRTLTVSYTQASGKVLTWKTTVASSYQAMAMVVSASTGAAKNLQQFKLTSFDFQEAATVNVKYVDTTGHQLAQG and stop.
Result block: -0.327

Query block: Give the value of glycan array binding signal (z-score) reported for the following: Gal 8 (Homo sapiens), O00214_1 (protein) MMLSLNNLQNIIYNPVIPFVGTIPDQLDPGTLIVIRGHVPSDADRFQVDLQNGSSMKPRADVAFHFNPRFKRAGCIVCNTLINEKWGREEITYDTPFKREKSFEIVIMVLKDKFQVAVNGKHTLLYGHRIGPEKIDTLGIYGKVNIHSIGFSFSSDLQSTQASSLELTEISRENVPKSGTPQLRLPFAARLNTPMGPGRTVVVKGEVNANAKSFNVDLLAGKSKDIALHLNPRLNIKAFVRNSFLQESWGEEERNITSFPFSPGMYFEMIIYCDVREFKVAVNGVHSLEYKHRFKELSSIDTLEINGDIHLLEVRSW
Result block: 2.19
